B1: MLL5 (parent)
chain: TYLCERCQPRNLDKERAVLLQRRK

Variants of: B1
Test: protein stability index of a GFP-peptide fusion (GPS, HEK-293T) (PSI 1-6); higher = more stable;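 also: lentivirally expressed fusions sorted by FACS into six bins by GFP to DsRed ratio, PSI derived from sequencing read proportions per bin multiplied by bin number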
Conditions: c terminus: a fixed tail appended
What protein stability index was measured for each of the following?
Answers are plain numbers.

1) L20S ... 1.9
2) R6C ... 2.2
3) E15P ... 2.12
4) L19W ... 1.93
5) A17Y ... 2.18

Provide protein stability index for all items below, preserving their order.
1. R6G
2. E15W
3. T1S
4. K14A
5. L20F
6. C4V

Reply:
1: 4.25; 2: 1.94; 3: 1.87; 4: 2.29; 5: 2.3; 6: 3.12
